// inhibition at 10 µM lookup, one value per entry
system under test: CYP3A4 (Homo sapiens, UniProt P08684)
Sequence (P08684 whole entry): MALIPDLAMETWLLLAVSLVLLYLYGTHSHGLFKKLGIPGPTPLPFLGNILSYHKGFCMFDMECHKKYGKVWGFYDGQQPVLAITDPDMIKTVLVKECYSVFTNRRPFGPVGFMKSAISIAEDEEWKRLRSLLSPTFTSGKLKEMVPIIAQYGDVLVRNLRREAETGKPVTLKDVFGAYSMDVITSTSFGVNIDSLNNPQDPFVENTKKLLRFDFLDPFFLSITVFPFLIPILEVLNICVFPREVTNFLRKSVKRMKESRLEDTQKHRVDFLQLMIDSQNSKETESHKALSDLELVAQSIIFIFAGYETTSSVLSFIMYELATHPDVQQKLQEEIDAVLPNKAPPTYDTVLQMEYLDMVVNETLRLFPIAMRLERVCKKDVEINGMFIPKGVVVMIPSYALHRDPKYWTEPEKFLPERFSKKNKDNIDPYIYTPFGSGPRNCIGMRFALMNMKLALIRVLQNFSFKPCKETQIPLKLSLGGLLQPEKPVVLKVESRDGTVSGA
test details: in vitro
condition set: probe testosterone
Description: Inhibition of CYP3A4 (unknown origin) assessed as oxidation of testosterone at 10 uM
quantity kind: inhibition at 10 µM (%)

>>> print(df.to_string())
                             compound_smiles        quantity_kind  experimental_result
 0  C/C(=C\c1ccc2c(c1)N(S(=O)(=O)c1cccc(C(F)(F)F)c1)C[C@H](CCC(=O)O)O2)c1ccccc1C  inhibition at 10 µM                    0
 1  O=C(O)C1(C[C@H]2CN(S(=O)(=O)c3cccc(C(F)(F)F)c3)c3cc(-c4cccc(Cl)c4F)ccc3O2)CCOCC1  inhibition at 10 µM                   36
 2  O=C(O)CC[C@H]1CN(S(=O)(=O)c2cccc(C(F)(F)F)c2)c2cc(-c3cccc(Cl)c3)ccc2O1  inhibition at 10 µM                   24
 3  O=C(O)CC[C@H]1CN(S(=O)(=O)c2cccc(C(F)(F)F)c2)c2cc(-c3cccc(F)c3Cl)ccc2O1  inhibition at 10 µM                   11
 4  O=C(O)CC[C@H]1CN(S(=O)(=O)c2cccc(C(F)(F)F)c2)c2cc(-c3cc(F)ccc3Cl)ccc2O1  inhibition at 10 µM                   15
 5  C/C(=C\c1ccc2c(c1)N(S(=O)(=O)c1ccc(F)c(C3CC3)c1)C[C@H](CCC(=O)O)O2)c1c(F)cccc1Cl  inhibition at 10 µM                    4
 6  O=C(O)CC[C@H]1CN(S(=O)(=O)c2cccc(C(F)(F)F)c2)c2cc(-c3cc(F)cc(OC(F)F)c3)ccc2O1  inhibition at 10 µM                    5
 7  O=C(O)CC[C@H]1CN(S(=O)(=O)c2cccc(C(F)(F)F)c2)c2cc(-c3ccc(Cl)cc3)ccc2O1  inhibition at 10 µM                   14
 8  O=C(O)CC[C@H]1CN(S(=O)(=O)c2cccc(C(F)(F)F)c2)c2cc(-c3cc(F)ccc3F)ccc2O1  inhibition at 10 µM                   13
 9  CC(C)(C[C@H]1CN(S(=O)(=O)c2cccc(C(F)(F)F)c2)c2cc(-c3cccc(Cl)c3F)ccc2O1)C(=O)O  inhibition at 10 µM                 28.5
10  O=C(O)CC[C@H]1CN(S(=O)(=O)c2cccc(C(F)(F)F)c2)c2cc(/C=C/c3c(F)cccc3Cl)ccc2O1  inhibition at 10 µM                   33
11  O=C(O)C1(C[C@H]2CN(S(=O)(=O)c3cccc(C(F)(F)F)c3)c3cc(-c4cc(F)cc(OC(F)F)c4)ccc3O2)CCOCC1  inhibition at 10 µM                   -2
12  CCOc1nn2c(c1S(=O)(=O)N1C[C@H](CCC(=O)O)Oc3ccc(/C=C(\C)c4c(F)cccc4Cl)cc31)CCCC2  inhibition at 10 µM                   19
13  C/C(=C\c1ccc2c(c1)N(S(=O)(=O)c1cccc(C(F)(F)F)c1)C[C@H](CCC(=O)O)O2)c1ccccc1  inhibition at 10 µM                   -3
14  O=C(O)CC[C@H]1CN(S(=O)(=O)c2cccc(C(F)(F)F)c2)c2cc(-c3cccc(F)c3)ccc2O1  inhibition at 10 µM                   19
15  CC(C)c1ccc(-c2ccc3c(c2)N(S(=O)(=O)c2cccc(C(F)(F)F)c2)C[C@H](CCC(=O)O)O3)cc1  inhibition at 10 µM                   -4

* * *

test details: in vitro
condition set: human, hepatocytes
Description: Clearance in human hepatocyte measured per 10^6 cells
quantity kind: hepatocyte CLint (µL/min/1e6 cells)

In [3]: df
Out[3]:
                            compound_smiles     quantity_kind  experimental_result
0  O=C(O)C1(C[C@H]2CN(S(=O)(=O)c3cccc(C(F)(F)F)c3)c3cc(-c4cc(F)cc(OC(F)F)c4)ccc3O2)COC1  hepatocyte CLint                   17

* * *

system under test: CYP2D6 (Homo sapiens, UniProt P10635)
Sequence (P10635 whole entry): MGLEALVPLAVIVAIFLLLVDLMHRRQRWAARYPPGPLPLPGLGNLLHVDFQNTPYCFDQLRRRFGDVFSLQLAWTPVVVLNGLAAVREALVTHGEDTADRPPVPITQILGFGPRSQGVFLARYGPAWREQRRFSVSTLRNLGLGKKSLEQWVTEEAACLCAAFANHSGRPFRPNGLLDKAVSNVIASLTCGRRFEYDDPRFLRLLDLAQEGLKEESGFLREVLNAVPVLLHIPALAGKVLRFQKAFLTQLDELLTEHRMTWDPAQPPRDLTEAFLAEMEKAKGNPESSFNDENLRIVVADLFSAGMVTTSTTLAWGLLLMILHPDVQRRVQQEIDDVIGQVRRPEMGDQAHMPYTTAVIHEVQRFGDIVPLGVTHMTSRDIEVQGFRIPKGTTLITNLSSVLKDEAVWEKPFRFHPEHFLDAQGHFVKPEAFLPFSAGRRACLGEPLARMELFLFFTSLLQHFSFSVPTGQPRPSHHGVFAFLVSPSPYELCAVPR
test details: in vitro
condition set: probe testosterone
Description: Inhibition of CYP2D6 (unknown origin) assessed as oxidation of testosterone at 10 uM
quantity kind: inhibition at 10 µM (%)

                             compound_smiles  experimental_result
 0  O=C(O)CC[C@H]1CN(S(=O)(=O)c2cccc(C(F)(F)F)c2)c2cc(-c3ccc(Cl)cc3)ccc2O1                   -2
 1  COc1cccc(-c2ccc3c(c2)N(S(=O)(=O)c2cccc(C(F)(F)F)c2)C[C@H](CCC(=O)O)O3)c1                    2
 2  C/C(=C\c1ccc2c(c1)N(S(=O)(=O)c1cccc(C(F)(F)F)c1)C[C@H](CCC(=O)O)O2)c1ccccc1C(F)(F)F                    2
 3  C/C(=C\c1ccc2c(c1)N(S(=O)(=O)c1cccc(C(F)(F)F)c1)C[C@H](CCC(=O)O)O2)c1ccccc1                    3
 4  C/C(=C\c1ccc2c(c1)N(S(=O)(=O)c1ccc(F)c(C3CC3)c1)C[C@H](CCC(=O)O)O2)c1c(F)cccc1Cl                   10
 5  C/C(=C\c1ccc2c(c1)N(S(=O)(=O)c1cccc(C(F)(F)F)c1)C[C@H](CCC(=O)O)O2)c1c(Cl)cccc1Cl                   -1
 6  CCOc1nn2c(c1S(=O)(=O)N1C[C@H](CCC(=O)O)Oc3ccc(/C=C(\C)c4c(F)cccc4Cl)cc31)CCCC2                    6
 7  O=C(O)CC[C@H]1CN(S(=O)(=O)c2cccc(C(F)(F)F)c2)c2cc(-c3cc(F)cc(OC(F)F)c3)ccc2O1                   -6
 8  COc1cc(S(=O)(=O)N2C[C@H](CCC(=O)O)Oc3ccc(/C=C(\C)c4c(F)cccc4Cl)cc32)ccc1F                   10
 9  C/C(=C\c1ccc2c(c1)N(S(=O)(=O)c1cccc(C(F)(F)F)c1)C[C@H](CCC(=O)O)O2)c1ccccc1Cl                   13
10  O=C(O)C1(C[C@H]2CN(S(=O)(=O)c3cccc(C(F)(F)F)c3)c3cc(-c4cc(F)cc(OC(F)F)c4)ccc3O2)CCOCC1                    4
11  COc1ccccc1/C(C)=C/c1ccc2c(c1)N(S(=O)(=O)c1cccc(C(F)(F)F)c1)C[C@H](CCC(=O)O)O2                    3
12  CC(C)(C[C@H]1CN(S(=O)(=O)c2cccc(C(F)(F)F)c2)c2cc(-c3cccc(Cl)c3F)ccc2O1)C(=O)O                    6
13  CC(C)c1ccc(-c2ccc3c(c2)N(S(=O)(=O)c2cccc(C(F)(F)F)c2)C[C@H](CCC(=O)O)O3)cc1                    2
14  O=C(O)CC[C@H]1CN(S(=O)(=O)c2cccc(C(F)(F)F)c2)c2cc(-c3cc(F)ccc3F)ccc2O1                    1
15  C[C@H](C[C@H]1CN(S(=O)(=O)c2cccc(C(F)(F)F)c2)c2cc(-c3cc(F)ccc3F)ccc2O1)C(=O)O                   11
16  C/C(=C\c1ccc2c(c1)N(S(=O)(=O)c1cccc(OC(F)F)c1)C[C@H](CCC(=O)O)O2)c1c(F)cccc1Cl                    2
17  O=C(O)CC[C@H]1CN(S(=O)(=O)c2cccc(C(F)(F)F)c2)c2cc(-c3cccc(Cl)c3)ccc2O1                    0
18  O=C(O)CC[C@H]1CN(S(=O)(=O)c2cccc(C(F)(F)F)c2)c2cc(-c3cccc(F)c3Cl)ccc2O1                    6
19  O=C(O)C1(C[C@H]2CN(S(=O)(=O)c3cccc(C(F)(F)F)c3)c3cc(-c4cccc(Cl)c4F)ccc3O2)CCOCC1                    9
20  O=C(O)CC[C@H]1CN(S(=O)(=O)c2cccc(C(F)(F)F)c2)c2cc(-c3cccc(F)c3)ccc2O1                    0
21  C[C@@H](C[C@H]1CN(S(=O)(=O)c2cccc(C(F)(F)F)c2)c2cc(-c3cc(F)ccc3F)ccc2O1)C(=O)O                   13
22  O=C(O)C1(C[C@H]2CN(S(=O)(=O)c3cccc(C(F)(F)F)c3)c3cc(-c4cc(F)ccc4F)ccc3O2)CCOCC1                    8
